Test system: UACC-62 melanoma
procedure_text: NCI-60 one-dose screen, 48 h (100 = growth as untreated, 0 = no growth, -100 = all killed)
settings: 10 µM unless noted
The panel holds about 83,000 compounds, 20% with a hit somewhere; the sample as a whole holds those more often.

{"columns": ["smiles_str", "target", "growth [%]"],
 "data": [
  ["COc1ccc(N=c2nc3sc4cc(Cl)ccc4n3c(N)c2C#N)cc1", "UACC-62 melanoma", 69.3],
  ["N#Cc1c(NC(=O)c2ccccc2I)sc2c1CCCC2", "UACC-62 melanoma", 38],
  ["O=C(Oc1ccc[nH]c1=O)c1cc([N+](=O)[O-])cc([N+](=O)[O-])c1", "UACC-62 melanoma", 114],
  ["Cc1cnc(Nc2ccc(N3CCN(C)CC3)cc2)nc1Nc1ccc(Cl)c(NS(=O)(=O)C(C)(C)C)c1", "UACC-62 melanoma", 16.1],
  ["Oc1ccccc1-c1nc2ccccn2c1NCCN1CCOCC1", "UACC-62 melanoma", 95.3]
]}
